Cited source: patent US20260258115A1

molecular target: RSV fusion glycoprotein (RSV F) on RSV-A2 virus (respiratory syncytial virus, UniProt P03420 26-574); assay: cell-based or functional assay
# maps each entry to its Neutralization IC50 (RSV subtype A)

binder	result-comparator	Neutralization IC50 (RSV subtype A) / µg/mL
ADI-41392 (antibody, V domains shown, IgG1) VH: EVQLVESGGGVVQPGGSLRLSCAASGFEFRDYAMHWVRQAPGKGLEWVALISYDGSKIHYADSVQGRFSISRDNSKNSLYLQMNSLRSEDSAKYYCVQDHWLVPAFWGQGAQVTVSS VL: QPVLTQPASVSGSPGQWITISCTGTSSDIGYYDYVSWYQQYPGKAPKLIIYEVSHRPSGVSNRFSGSKSGNTASLSISGLQAEDEADYYCSSYTTSNAGVFGTGTKLTVL	=	0.18
ADI-41421 (antibody, V domains shown, IgG1) VH: QVQLVESAAEVKRPGASLKVSCKASGYTFIDYDISWVRQAPGQGLDWMGWISTYDGSAKYPENLQARVAMTTDTSTSTAYMELESLTSDDTAVYYCARARRGSSGWVSTTGPTPFFDYWGRGTLVTVSS VL: SYELTQPPSVSVSPGQTARITCSGDALPKRYAYWYQQKSGQAPVLVIYEDNKRPSGIPERFSGSSSGTVATLTISGAQVEDEADYSCYSTDATGNHRGLFGGGTKLTVL	=	4.78
ADI-41448 (antibody, V domains shown, IgG1) VH: TVQLVESGAEVKSPGSSVRVSCQASGGSSNSYAISWVRQAPGQGLEWMGMISPLFGTTRFSQRFQGRVTITADKSTSTAYMELSSLNSEDTALYYCARGRFDFWSGPTRFYYTMDVWGQGTMVTVSS VL: QSVLIQPASVSGSPGQSITISCSGTSSDIGGYNYVSWYQQHPGKAPKLLISDVTDRPSGISDRFSGSKSGTSASLTISGLQADDEADYYCTSYTTSSTWVFGGGTKLTVL	>	25
ADI-41390 (antibody, V domains shown) VH: EVQLVESGGGLVKPGGSLRLSCAASGFSSSSYFMNWVRQAPGKGPEWVSSISGSSSFINYADSVKGRFTISRDNAKNSLYLQMNSLRAEDTAVYYCARAVLPAGVGGYWFDSWGQGTLVTVSS VL: QSVVTQPPSVSGAPGQRVTISCTGSSSNIGAGYDVHWYQHLPGRAPKLLIYGNSNRPSGVPDRFSGSKSGTSASLVITGLQAEDEADYCCQSYDSSLSGAVFGGGTQLTVL	=	0.62
ADI-41419 (antibody, V domains shown, IgG1) VH: EVQLVESGGGLVQPGRSLRLSCAASGFTFDDYAMHWVRQAPGKGLEWVSGISWNSGSVGYSDSVKGRFTISRDNAKSSLYLQMNNLRAEDTALYYCARDMAHTQDYFDTSEYDSWGQGTLVTVSS VL: QPVLTQPASVSGSPGQSITISCTGTSSDIGAYNYVSWYQQHPGKAPKLVVYEVNNRPSGISNRFSGSKSGNTASLTISGLQAEDEADYYCSSYTVSATLVFGGGTKLTVL	=	0.01
